biological target: Serine/threonine-protein kinase 33 (Homo sapiens)
Sequence (Q9BYT3 whole entry): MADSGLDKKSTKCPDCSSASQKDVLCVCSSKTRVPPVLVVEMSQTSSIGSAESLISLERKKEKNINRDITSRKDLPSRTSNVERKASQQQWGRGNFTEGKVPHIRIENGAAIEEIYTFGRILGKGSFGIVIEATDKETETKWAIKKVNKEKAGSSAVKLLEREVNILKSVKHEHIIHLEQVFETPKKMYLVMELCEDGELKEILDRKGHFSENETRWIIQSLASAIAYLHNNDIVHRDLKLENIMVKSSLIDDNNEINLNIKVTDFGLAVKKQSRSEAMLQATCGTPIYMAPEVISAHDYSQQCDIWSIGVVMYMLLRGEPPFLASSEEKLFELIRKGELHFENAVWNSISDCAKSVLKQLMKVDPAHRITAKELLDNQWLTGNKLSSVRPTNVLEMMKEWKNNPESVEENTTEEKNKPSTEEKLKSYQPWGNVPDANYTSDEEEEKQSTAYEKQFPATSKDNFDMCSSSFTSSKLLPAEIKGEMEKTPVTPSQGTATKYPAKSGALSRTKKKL
recordedMetric: IC50

## Task Check Serine/threonine-protein kinase 33 (Homo sapiens) data and give IC50 for CNC(=O)c1cc(Oc2ccc(NC(=O)Nc3cc(C(C)(C)C)nn3-c3ccc4ncccc4c3)c(F)c2)ccn1 [REBASTINIB] .
## Result > 1 µM

====

Target: Tyrosine-protein kinase ITK/TSK (Homo sapiens)
Sequence (Q08881 whole entry): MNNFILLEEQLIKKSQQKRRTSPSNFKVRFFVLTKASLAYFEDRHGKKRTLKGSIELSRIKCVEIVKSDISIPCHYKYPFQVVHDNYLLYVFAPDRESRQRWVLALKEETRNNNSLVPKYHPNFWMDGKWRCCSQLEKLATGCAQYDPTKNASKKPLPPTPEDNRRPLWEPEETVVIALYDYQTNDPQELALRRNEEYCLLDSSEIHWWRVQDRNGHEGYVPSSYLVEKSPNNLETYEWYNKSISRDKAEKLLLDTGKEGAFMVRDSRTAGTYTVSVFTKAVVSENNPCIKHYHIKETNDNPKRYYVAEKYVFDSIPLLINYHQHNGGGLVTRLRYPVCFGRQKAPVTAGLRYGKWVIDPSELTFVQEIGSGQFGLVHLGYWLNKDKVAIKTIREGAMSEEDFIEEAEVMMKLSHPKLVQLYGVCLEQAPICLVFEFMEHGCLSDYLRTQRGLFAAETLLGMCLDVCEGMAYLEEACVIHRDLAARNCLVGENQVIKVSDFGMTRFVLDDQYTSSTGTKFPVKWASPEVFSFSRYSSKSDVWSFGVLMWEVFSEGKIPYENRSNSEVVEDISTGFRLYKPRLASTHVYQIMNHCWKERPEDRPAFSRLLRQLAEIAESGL
recordedMetric: IC50 (nM)
I only need the number, in nM, no unit after it.

## Task Fill in IC50 for record `CNC(=O)c1cc(Oc2ccc(NC(=O)Nc3cc(C(C)(C)C)nn3-c3ccc4ncccc4c3)c(F)c2)ccn1`
## Result 270

====

molecular target: Serine/threonine-protein kinase pim-1 (Homo sapiens, UniProt P11309)
Sequence (P11309 whole entry): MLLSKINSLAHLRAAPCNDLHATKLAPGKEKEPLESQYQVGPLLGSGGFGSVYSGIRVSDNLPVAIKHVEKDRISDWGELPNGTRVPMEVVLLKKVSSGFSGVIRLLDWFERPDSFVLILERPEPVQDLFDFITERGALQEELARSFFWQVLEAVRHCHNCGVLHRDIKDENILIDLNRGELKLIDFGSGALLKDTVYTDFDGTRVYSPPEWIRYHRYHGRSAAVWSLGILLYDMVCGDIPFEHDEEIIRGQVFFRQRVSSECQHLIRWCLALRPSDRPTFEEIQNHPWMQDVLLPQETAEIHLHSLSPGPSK
pIC50: −log10 of the molar value.
recordedMetric: pIC50

## Task Note pIC50 for the compound shown: CNC(=O)c1cc(Oc2ccc(NC(=O)Nc3cc(C(C)(C)C)nn3-c3ccc4ncccc4c3)c(F)c2)ccn1 [REBASTINIB]
## Result < 6.00

====

biological target: cAMP-dependent protein kinase catalytic subunit PRKX (Homo sapiens, UniProt P51817); test: Inhibition of human wild type PRKX using RBER-GSK3([…] to […]) as substrate preincubated for 2 hrs followed by ATP addition and measured every 2 mins for […] by spectrophotometric analysis
Sequence (P51817 whole entry): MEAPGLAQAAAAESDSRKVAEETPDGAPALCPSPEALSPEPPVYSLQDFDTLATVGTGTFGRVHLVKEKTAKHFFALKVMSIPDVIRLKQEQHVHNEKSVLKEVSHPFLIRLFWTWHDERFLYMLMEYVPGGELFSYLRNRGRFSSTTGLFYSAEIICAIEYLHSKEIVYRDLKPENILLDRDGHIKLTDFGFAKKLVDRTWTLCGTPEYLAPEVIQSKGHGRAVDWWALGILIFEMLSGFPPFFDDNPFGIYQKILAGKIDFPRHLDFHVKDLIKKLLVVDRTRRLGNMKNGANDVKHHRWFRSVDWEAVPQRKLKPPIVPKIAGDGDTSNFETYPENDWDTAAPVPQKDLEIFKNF
recordedMetric: IC50

## Task Find the measured IC50 of `CNC(=O)c1cc(Oc2ccc(NC(=O)Nc3cc(C(C)(C)C)nn3-c3ccc4ncccc4c3)c(F)c2)ccn1` and report it.
## Result > 1 µM

====

biological target: Death-associated protein kinase 3 (Homo sapiens, UniProt O43293)
Sequence (O43293 whole entry): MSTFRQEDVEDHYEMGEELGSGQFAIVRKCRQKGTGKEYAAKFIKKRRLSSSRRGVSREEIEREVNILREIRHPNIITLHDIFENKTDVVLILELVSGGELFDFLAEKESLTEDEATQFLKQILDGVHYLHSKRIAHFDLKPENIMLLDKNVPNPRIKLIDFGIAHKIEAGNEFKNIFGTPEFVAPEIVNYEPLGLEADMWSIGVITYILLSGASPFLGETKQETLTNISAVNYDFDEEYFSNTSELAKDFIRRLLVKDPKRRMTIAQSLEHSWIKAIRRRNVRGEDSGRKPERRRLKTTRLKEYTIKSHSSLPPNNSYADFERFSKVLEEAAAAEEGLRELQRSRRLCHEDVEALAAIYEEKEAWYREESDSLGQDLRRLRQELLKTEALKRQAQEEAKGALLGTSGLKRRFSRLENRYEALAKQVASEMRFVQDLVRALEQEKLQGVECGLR
pIC50: −log10 of the molar value.
recordedMetric: pIC50

## Task Provide pIC50, recorded with Death-associated protein kinase 3 (Homo sapiens, UniProt O43293), of `CNC(=O)c1cc(Oc2ccc(NC(=O)Nc3cc(C(C)(C)C)nn3-c3ccc4ncccc4c3)c(F)c2)ccn1`
## Result < 6.00

====

molecular target: Receptor tyrosine-protein kinase erbB-2 (Homo sapiens)
Sequence (P04626 whole entry): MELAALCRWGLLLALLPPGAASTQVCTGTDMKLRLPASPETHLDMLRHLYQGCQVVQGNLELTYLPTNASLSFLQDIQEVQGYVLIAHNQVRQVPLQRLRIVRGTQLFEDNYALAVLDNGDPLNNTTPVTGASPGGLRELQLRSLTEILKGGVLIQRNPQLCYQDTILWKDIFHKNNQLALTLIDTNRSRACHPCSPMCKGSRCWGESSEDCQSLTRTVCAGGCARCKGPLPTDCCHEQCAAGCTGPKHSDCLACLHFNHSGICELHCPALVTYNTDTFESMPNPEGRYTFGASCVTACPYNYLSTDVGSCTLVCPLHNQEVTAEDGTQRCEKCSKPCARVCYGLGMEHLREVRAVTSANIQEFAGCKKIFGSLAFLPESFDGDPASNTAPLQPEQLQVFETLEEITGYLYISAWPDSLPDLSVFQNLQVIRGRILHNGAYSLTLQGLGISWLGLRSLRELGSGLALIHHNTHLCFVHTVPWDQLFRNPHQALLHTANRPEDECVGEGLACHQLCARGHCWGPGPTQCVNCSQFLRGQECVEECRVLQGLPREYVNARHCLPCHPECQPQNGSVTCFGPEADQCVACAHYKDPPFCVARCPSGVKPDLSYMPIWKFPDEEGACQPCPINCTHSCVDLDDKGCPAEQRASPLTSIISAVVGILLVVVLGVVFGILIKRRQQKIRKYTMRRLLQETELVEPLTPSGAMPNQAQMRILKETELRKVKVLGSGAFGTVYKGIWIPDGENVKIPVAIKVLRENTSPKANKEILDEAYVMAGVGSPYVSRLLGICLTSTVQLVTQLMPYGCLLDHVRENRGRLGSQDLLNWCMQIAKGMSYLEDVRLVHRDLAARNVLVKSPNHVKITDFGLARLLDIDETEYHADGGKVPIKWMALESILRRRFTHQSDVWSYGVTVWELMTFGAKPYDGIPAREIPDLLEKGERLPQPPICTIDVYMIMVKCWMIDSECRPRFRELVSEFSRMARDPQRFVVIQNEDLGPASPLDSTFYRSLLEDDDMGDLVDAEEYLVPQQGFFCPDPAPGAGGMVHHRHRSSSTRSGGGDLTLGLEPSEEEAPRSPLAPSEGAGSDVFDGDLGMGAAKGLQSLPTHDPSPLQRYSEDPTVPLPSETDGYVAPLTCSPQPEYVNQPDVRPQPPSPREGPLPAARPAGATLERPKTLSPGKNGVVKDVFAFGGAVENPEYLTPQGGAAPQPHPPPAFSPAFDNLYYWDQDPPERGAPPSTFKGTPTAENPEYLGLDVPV
pIC50: −log10 of the molar value.
recordedMetric: pIC50

## Task Give the observed pIC50 of `CNC(=O)c1cc(Oc2ccc(NC(=O)Nc3cc(C(C)(C)C)nn3-c3ccc4ncccc4c3)c(F)c2)ccn1` for Receptor tyrosine-protein kinase erbB-2 (Homo sapiens).
## Result < 6.00

====

molecular target: Glycogen synthase kinase-3 alpha (Homo sapiens, UniProt P49840)
Sequence (P49840 whole entry): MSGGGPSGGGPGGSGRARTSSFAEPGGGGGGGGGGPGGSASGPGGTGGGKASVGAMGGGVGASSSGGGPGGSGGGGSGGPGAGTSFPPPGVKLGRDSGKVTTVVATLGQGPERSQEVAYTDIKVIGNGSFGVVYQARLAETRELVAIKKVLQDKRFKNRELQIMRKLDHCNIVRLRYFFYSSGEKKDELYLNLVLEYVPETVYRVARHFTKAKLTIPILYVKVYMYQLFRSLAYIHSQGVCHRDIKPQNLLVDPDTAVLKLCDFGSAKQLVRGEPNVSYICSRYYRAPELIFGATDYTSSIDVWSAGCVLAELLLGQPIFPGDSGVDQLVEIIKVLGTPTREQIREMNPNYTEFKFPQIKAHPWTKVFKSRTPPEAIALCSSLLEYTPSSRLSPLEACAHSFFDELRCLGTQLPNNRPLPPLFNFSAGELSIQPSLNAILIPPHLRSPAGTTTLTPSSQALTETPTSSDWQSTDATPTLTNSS
recordedMetric: IC50

## Task Print Glycogen synthase kinase-3 alpha (Homo sapiens, UniProt P49840) IC50 for CNC(=O)c1cc(Oc2ccc(NC(=O)Nc3cc(C(C)(C)C)nn3-c3ccc4ncccc4c3)c(F)c2)ccn1 [REBASTINIB] .
## Result > 1000 nM
